Tested on: A549
Assay: cells
Settings: Homo sapiens, A549, 24 h
Description: Antiproliferative activity against human A549 cells assessed as reduction in cell viability after 24 hrs by MTT assay
pIC50: −log10 of the molar value.
METRIC: pIC50

COMPOUND: O=C(c1ccc(Br)cc1)N1N=C(c2ccc(Br)cc2)CC1c1ccc2c(c1)OCO2 (stereo not drawn)
TARGET: A549
METRIC: pIC50
OBSERVED VALUE: < 5.00

COMPOUND: CCOc1ccc(C2=NN(C(=O)c3ccc(Br)cc3)C(c3ccc4c(c3)OCO4)C2)cc1 (stereo not drawn)
TARGET: A549
METRIC: pIC50
OBSERVED VALUE: < 5.00

COMPOUND: Cc1cccc(C2=NN(C(=O)c3ccc(Br)cc3)C(c3ccc4c(c3)OCO4)C2)c1 (stereo not drawn)
TARGET: A549
METRIC: pIC50
OBSERVED VALUE: < 5.00

COMPOUND: O=C(c1ccc(Br)cc1)N1N=C(c2ccc(Cl)cc2)CC1c1ccc2c(c1)OCO2 (stereo not drawn)
TARGET: A549
METRIC: pIC50
OBSERVED VALUE: < 5.00

COMPOUND: O=C(c1ccc(Br)cc1)N1N=C(c2ccc(F)cc2)CC1c1ccc2c(c1)OCO2 (stereo not drawn)
TARGET: A549
METRIC: pIC50
OBSERVED VALUE: 5.61

COMPOUND: COc1ccc(C2=NN(C(=O)c3ccc(Cl)cc3)C(c3ccc4c(c3)OCO4)C2)cc1 (stereo not drawn)
TARGET: A549
METRIC: pIC50
OBSERVED VALUE: 5.15

COMPOUND: COc1cccc(C2=NN(C(=O)c3ccc(Br)cc3)C(c3ccc4c(c3)OCO4)C2)c1 (stereo not drawn)
TARGET: A549
METRIC: pIC50
OBSERVED VALUE: < 5.00

COMPOUND: COc1ccc(C2=NN(C(=O)c3cccc(OC)c3)C(c3ccc4c(c3)OCO4)C2)cc1 (stereo not drawn)
TARGET: A549
METRIC: pIC50
OBSERVED VALUE: 5.21

Taken from ChEMBL document CHEMBL3425471.
